assayed.system: IL1R1
run.parameters: ASO; note: test concentration or dose not given here
These antisense oligonucleotides have a phosphorothioate backbone; sugars and methylation of C are not fully specified.
measurement.type: remaining target (mRNA or protein) (fraction of control)
Response field accepts a number only; no unit should be typed.

The following sequences have reported results that may help.
CGCGCTCGGCTCCTCCCGGC    0.75
TGATCCGTGATGCATGCTGT    0.5
CATTCCATGAACTCTGCAAG    0.75

q: Quick one: give measured remaining target (mRNA or protein) (fraction of control) for GCCACCACAGCCTCTCCCTC
a: 0.42

q: Quick one: give measured remaining target (mRNA or protein) (fraction of control) for CCCTTGGGCTGTGGATGACT
a: 0.75

q: Quick one: give measured remaining target (mRNA or protein) (fraction of control) for CATTCCTGCCGCTCCCTGGG
a: 0.75

q: Quick one: give measured remaining target (mRNA or protein) (fraction of control) for CACTTAGCCGTGCGTTGGTG
a: 0.5

q: Quick one: give measured remaining target (mRNA or protein) (fraction of control) for CCTCCAGGGCTGCGGCGGCT
a: 0.75

q: Quick one: give measured remaining target (mRNA or protein) (fraction of control) for TGCCTTTCGCGGTCTCGCTC
a: 0.75

q: Quick one: give measured remaining target (mRNA or protein) (fraction of control) for AGATGCCTTGCGTTGGCTGC
a: 0.5

q: Quick one: give measured remaining target (mRNA or protein) (fraction of control) for AGTGCTACGGTGCGGGCGCG
a: 0.75

====

assayed.system: ITGB3
run.parameters: ASO
These antisense oligonucleotides have a phosphorothioate backbone; sugars and methylation of C are not fully specified.
measurement.type: remaining target (mRNA or protein) (fraction of control)
Response field accepts a number only; no unit should be typed.

The following sequences have reported results that may help.
TCTCACTGAGGTAATGAA    0.66
TCCTTCGGCCTGAGGGAG    0.57
TGGATGGAGAAATTCTTC    0.64
TGTCCCATTTTGCTCTGG    0.53
CAATAAGGCAAATCTGAA    0.77
AGAAGTCGTCACACTCGC    0.72
GACTCCTGCAATCCTGGC    0.53
GTGATGAGGAGTTTCCAG    0.98

Now for a further sequence.
q: Quick one: give measured remaining target (mRNA or protein) (fraction of control) for AGACAACTCTTCAGGGAG
a: 0.62

====

assayed.system: MAP2K1
run.parameters: ASO
These antisense oligonucleotides have a phosphorothioate backbone; sugars and methylation of C are not fully specified.
Mark class 1 for remaining target (mRNA or protein) (fraction of control) under 0.7, class 0 if at or over.

Below, 7 sequences whose answers are already recorded.
ATTAAGCATTTATTCACA    class 0
TCTGCTTCTGGGTAAGAA    class 0
GTACGGAGAGTTGCACTC    class 1
TGAAGCCCCAGCTATCAT    class 1
GTAATCCAACAACTCAAA    class 0
AGGAGGCCCAAAAGCGAC    class 1
GGCGTCGGCTTCTTCTTG    class 1

q: Find out if reported remaining target (mRNA or protein) (fraction of control) for GAGTTCTACATGAAAAGC is less than 0.7
a: class 1
